Origin of the recorded values: paper PMC9482650

Molecular target: Inadl_6, Q8NI35
Sequence (Q8NI35 1058-1167): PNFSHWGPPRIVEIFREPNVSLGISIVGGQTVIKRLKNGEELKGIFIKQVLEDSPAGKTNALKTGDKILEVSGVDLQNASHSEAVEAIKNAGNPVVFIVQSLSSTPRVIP
Experiment: holdup assay
Set-up: key: below the threshold = too weak to quantify, mostly under pKd 3.1 to 4
Settings: plain residues with an end cap or a label only (N-terminal biotin on a linker: ado-ado)

# BINDER, pKd
measured = [
    ("SKENVQETQI [LRRC4B, Q9NT99]", 3.71),
    ("TSQESEDTYL [TBC1D10A, Q9BXI6]", 3.78),
    ("LRSPRTPSEV [OR10G3, Q8NGC4]", "below the threshold"),
    ("FNSYSLTGYV [CLDN2, P57739]", "below the threshold"),
    ("PEYLGLDVPV [ERBB2, P04626]", "below the threshold"),
    ("LPAHHNATRL [SLC34A1, Q06495;Q06495-1]", "below the threshold"),
    ("SNAGNTATKA [NOSTRIN, Q8IVI9]", "below the threshold"),
    ("PLSPEQPTKL [TRIM50, Q86XT4]", "below the threshold"),
    ("CLREWCDAFL [BANF1, O75531]", 4.32),
    ("GSGAVEMESV [AQP6, Q13520]", "below the threshold"),
    ("YNNCLEILRV [DCAF7, P61962]", "below the threshold"),
    ("VKPQVSESKL [ACOT8, O14734]", "below the threshold"),
    ("GQEEQVTTRL [TRPC5, Q9UL62]", 3.79),
    ("DDEDRLVIEI [ZNF831, Q5JPB2]", "below the threshold"),
    ("HSGYRLNDYV [CLDN14, O95500]", "below the threshold"),
    ("PKRSFIESNV [TANC1, Q9C0D5]", "below the threshold"),
]
